Record form. Attribute: kd. Fill in for each entry.
- tgt: T1, human EphA4 (Homo sapiens, UniProt P54764)
- T1 construct: made in house; not restated for the human SEAP-His protein
- test.description: Affinity of humanized antibodies by SPR (Biacore T200)
- Format: binding
- test.conditions: human EphA4 extracellular region-SEAP-His; 1:1 binding model
Numbers only, in s⁻¹.

Please review the following examples before continuing.
82 (antibody, V domains shown, constant regions without entry; synthetic humanized antibody light chain variable region sequence; synthetic humanized antibody heavy chain variable region sequence) VL: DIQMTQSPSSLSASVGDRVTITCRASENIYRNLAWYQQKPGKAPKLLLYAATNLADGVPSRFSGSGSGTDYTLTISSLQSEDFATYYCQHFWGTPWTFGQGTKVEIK VH: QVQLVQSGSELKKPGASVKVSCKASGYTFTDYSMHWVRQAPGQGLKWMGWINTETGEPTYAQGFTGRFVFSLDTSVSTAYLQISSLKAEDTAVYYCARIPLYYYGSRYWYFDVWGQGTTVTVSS :: 0.00046
69 (antibody, V domains shown, synthetic humanized antibody heavy chain variable region sequence; synthetic humanized antibody light chain variable region sequence) VH: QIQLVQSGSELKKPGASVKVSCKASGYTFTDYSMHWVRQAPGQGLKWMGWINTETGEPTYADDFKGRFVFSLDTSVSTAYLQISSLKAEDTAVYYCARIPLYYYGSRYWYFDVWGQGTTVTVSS VL: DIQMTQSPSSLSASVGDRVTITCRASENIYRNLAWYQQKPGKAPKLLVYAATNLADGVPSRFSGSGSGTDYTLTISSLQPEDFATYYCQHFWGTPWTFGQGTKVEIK :: 0.00037
77 (antibody, V domains shown, synthetic humanized antibody heavy chain variable region sequence; synthetic humanized antibody light chain variable region sequence) VH: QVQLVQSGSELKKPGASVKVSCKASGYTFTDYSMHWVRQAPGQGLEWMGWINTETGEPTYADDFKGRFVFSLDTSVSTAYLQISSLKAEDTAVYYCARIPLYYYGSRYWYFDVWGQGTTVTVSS VL: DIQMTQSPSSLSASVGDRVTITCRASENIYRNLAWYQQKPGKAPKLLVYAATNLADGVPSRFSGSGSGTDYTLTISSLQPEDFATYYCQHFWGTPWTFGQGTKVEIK :: 0.00058

Please turn your attention to the following entry.
Incoming: Determine from records and report kd for 143 (antibody, V domains shown, synthetic humanized antibody heavy chain variable region sequence; synthetic humanized antibody light chain variable region sequence) VH: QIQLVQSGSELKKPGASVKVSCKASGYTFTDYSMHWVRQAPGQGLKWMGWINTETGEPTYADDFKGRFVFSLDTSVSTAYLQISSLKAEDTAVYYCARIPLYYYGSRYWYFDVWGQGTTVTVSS VL: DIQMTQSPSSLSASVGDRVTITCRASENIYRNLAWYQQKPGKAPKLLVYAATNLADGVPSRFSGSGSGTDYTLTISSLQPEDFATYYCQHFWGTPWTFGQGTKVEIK
Outgoing: 0.00051

Recorded values, source patent US10428140B2.
